// reported pIC50 per item
- MEASURED_ON: Human cytomegalovirus DNA polymerase (Human cytomegalovirus (strain AD169) (HHV-5) (Human herpesvirus 5), UniProt P08546)
- ASSAY_NAME: CMV polymerase assay (AlphaLISA)
- PROTOCOL_CONDITIONS: HCMV polymerase 0.2 nM, 30 min pre-incubation, 60 minute at 37° C.
Here pIC50 is given on a logarithmic scale as minus log10 of the concentration in mol/L.

The cases that follow already have their pIC50 on record.
• CCc1nc2cc(-c3cnc(OC)nc3)c(O[C@H]3CCN4C(=O)OC[C@@H]4C3)cc2c(=O)n1Cc1ccc(Cl)cc1 [Example 78] = 7.82
• O=C1OC[C@@H]2C[C@@H](Oc3cc4c(=O)n(Cc5ccc(Cl)cc5)ccc4cn3)CCN12 [Example 2] = 7.31
• Cc1nc2cc(C3CC(C)(O)C3)c(O[C@H]3CCN4C(=O)OC[C@@H]4C3)cc2c(=O)n1Cc1ccc(Cl)cc1 (single isomer, unassigned) [Example 77] = 8.51
• Cc1nc2cc(C3CC(O)C3)c(O[C@H]3CCN4C(=O)OC[C@@H]4C3)cc2c(=O)n1Cc1ccc(Cl)cc1 (single isomer, unassigned) [Example 62] = 9.00
• Cc1nc2cc(-c3cnn(C(F)F)c3)c(O[C@H]3CCN4C(=O)OC[C@@H]4C3)cc2c(=O)n1Cc1ccc(C#N)cc1 [Example 6] = 8.74

Exercise: Supply reported pIC50 belonging to this compound: Cc1nc2cc(-c3cn4c(n3)CN(C)CC4)c(O[C@H]3CCN4C(=O)OC[C@@H]4C3)cc2c(=O)n1Cc1ccc(Cl)cc1 [Example 79]
Solution: 8.31

* * *

// reported pIC50 per item
- MEASURED_ON: Human cytomegalovirus DNA polymerase (Human cytomegalovirus (strain AD169) (HHV-5) (Human herpesvirus 5), UniProt P08546)
- ASSAY_NAME: CMV polymerase assay (AlphaLISA)
- PROTOCOL_CONDITIONS: HCMV polymerase 0.2 nM, 30 min pre-incubation, 60 minute at 37° C.
Here pIC50 is given on a logarithmic scale as minus log10 of the concentration in mol/L.

The cases that follow already have their pIC50 on record.
• O=C1OC[C@@H]2C[C@@H](Oc3cc4c(=O)n(Cc5ccc(Cl)cc5)ccc4nc3-c3cnco3)CCN12 = 8.96
• CCc1nc2cc(-c3cnco3)c(O[C@H]3CCN4C(=O)OC[C@@H]4C3)cc2c(=O)n1Cc1ccc(C#N)cc1 = 8.92
• CC(O)Cc1nc2ccn(Cc3ccc(Cl)cc3)c(=O)c2cc1O[C@H]1CCN2C(=O)OC[C@@H]2C1 (single isomer, unassigned) = 8.13
• C[C@@H]1CN(C2CCOCC2)CCN1c1ccc2ncn(Cc3ccc(Cl)cc3)c(=O)c2c1 = 5.01
• Cc1nc2cc(-c3cc4n(n3)CCNC4)c(O[C@H]3CCN4C(=O)OC[C@@H]4C3)cc2c(=O)n1Cc1ccc(Cl)cc1 = 9.36
• Cc1nc2cc(C#N)c(O[C@H]3CCN4C(=O)OC[C@@H]4C3)cc2c(=O)n1Cc1ccc(Cl)cc1 = 8.55
• Cc1nc2cc(-c3cnc(C4CC4)nc3)c(O[C@H]3CCN4C(=O)OC[C@@H]4C3)cc2c(=O)n1Cc1ccc(Cl)cc1 = 7.74
• Cc1nc2ccc(O[C@H]3CCN4C(=O)OC[C@@H]4C3)cc2c(=O)n1Cc1ccc(Cl)cc1 = 7.96
• Cc1nc2cc(-c3cc(C(F)(F)F)[nH]n3)c(O[C@H]3CCN4C(=O)OC[C@@H]4C3)cc2c(=O)n1Cc1ccc(C#N)cc1 = 7.96
• O=C1OC[C@@H]2C[C@@H](Oc3cc4c(=O)n(Cc5ccc(Cl)cc5)cnc4nc3-c3cnco3)CCN12 = 8.34

Exercise: Supply reported pIC50 belonging to this molecule: `COc1nc2ccc(O[C@H]3CCN4C(=O)OC[C@@H]4C3)cc2c(=O)n1Cc1ccc(Cl)cc1`
Solution: 7.64

Exercise: Supply reported pIC50 belonging to this molecule: CC1CN(C)CCC1(F)c1ccc2ncn(Cc3ccc(Cl)cc3)c(=O)c2c1 (single isomer, unassigned)
Solution: 7.08

Exercise: Supply reported pIC50 belonging to this molecule: `Cc1nc2cc(-c3cnn(C(F)F)c3)c(O[C@H]3CCN4C(=O)OC[C@@H]4C3)cc2c(=O)n1Cc1ccc(Cl)cc1`
Solution: 8.96

Exercise: Supply reported pIC50 belonging to this molecule: `Cc1nc2cc(-c3cnn(C4CCN(C)CC4)c3)c(O[C@H]3CCN4C(=O)OC[C@@H]4C3)cc2c(=O)n1Cc1ccc(C#N)cc1`
Solution: 8.43

Reference source for all entries: patent US12497405B2
